From: the Deep4Chem optical property database

- PROCEDURE SUMMARY: solvent given as SMILES
- CONDITION NOTES: in ClCCl

[
  {
    "CPD SMILES": "O=C1/C(=C\\c2ccc3oc4ccccc4c3c2)S(=O)(=O)c2ccccc21",
    "emission maximum, nm": 438
  },
  {
    "CPD SMILES": "CCCCNc1ccc2n1[B-](F)(F)[N+]1=CC(/C=C/C(=O)OC(C)(C)C)=CC1=C2c1c(C)cc(C)cc1C",
    "emission maximum, nm": 546
  },
  {
    "CPD SMILES": "COc1ccc(C2=C(c3ccc(OC)cc3)c3cccc4c3c(cc3nc5ccccc5nc34)O2)cc1",
    "emission maximum, nm": 572
  }
]

* * *

- PROCEDURE SUMMARY: solvent given as SMILES
- CONDITION NOTES: in CCCO

[
  {
    "CPD SMILES": "CC1=C(C(C)(C)C)C(C)=[N+]2C1=C(C)c1c(C)c(C(C)(C)C)c(C)n1[B-]2(F)F",
    "emission maximum, nm": 564.6
  },
  {
    "CPD SMILES": "CN(C)c1ccc(/C=C2\\CC/C(=C\\c3ccc(C#N)cc3)C2=O)cc1",
    "emission maximum, nm": 644
  },
  {
    "CPD SMILES": "CCCN1C(=O)C(=CC=CC=C2Oc3ccccc3N2CCCS(=O)(=O)[O-])C(=O)N(CCC)C1=S",
    "emission maximum, nm": 581
  },
  {
    "CPD SMILES": "Cc1cc(C2(c3cc(C)c(O)c(Br)c3)OS(=O)(=O)c3ccccc32)cc(Br)c1O",
    "emission maximum, nm": 505
  },
  {
    "CPD SMILES": "Cc1ccc2c(CC(=O)NN)coc2c1",
    "emission maximum, nm": 394
  }
]

* * *

Consider the following compounds and their measured emission maximum readings.
- PROCEDURE SUMMARY: solvent given as SMILES
- CONDITION NOTES: in Cc1ccccc1
MEASURED PARAMETER: emission maximum (nm)

[
  {
    "CPD SMILES": "COc1ccc(-n2c3ccccc3c3cc(C=C(C#N)C#N)ccc32)cc1",
    "MEASURED PARAMETER": "emission maximum",
    "MEASURED VALUE": 450
  },
  {
    "CPD SMILES": "COc1cc(OC)cc(C2=[O+][B-](F)(F)OC(c3cccs3)=C2)c1",
    "MEASURED PARAMETER": "emission maximum",
    "MEASURED VALUE": 502.25
  },
  {
    "CPD SMILES": "CCCCCCC(CCCCCC)N1C(=O)c2cccc3c(-c4ccc([Si](C)(C)C)cc4)ccc(c23)C1=O",
    "MEASURED PARAMETER": "emission maximum",
    "MEASURED VALUE": 416.7
  },
  {
    "CPD SMILES": "COc1ccc(C2=[N+]3C(=Nc4c(-c5ccccc5-c5ccc(C(C)(C)C)cc5)cc(-c5ccc(OC)cc5)n4[B-]3(F)F)c3c2c2cc(C(C)(C)C)ccc2c2ccccc32)cc1",
    "MEASURED PARAMETER": "emission maximum",
    "MEASURED VALUE": 723
  },
  {
    "CPD SMILES": "F[B-]1(F)Oc2ccccc2-c2nc(-c3ccccc3)c3ccccc3[n+]21",
    "MEASURED PARAMETER": "emission maximum",
    "MEASURED VALUE": 529
  }
]

* * *

- PROCEDURE SUMMARY: solvent given as SMILES
- CONDITION NOTES: in CC#N
Consider the following compounds and their measured emission maximum readings.

[
  {
    "CPD SMILES": "CN(C)c1ccc2nc(-c3ccc(/C=N/c4ccccc4)cc3)sc2c1",
    "ENDPOINT UNIT": "nm",
    "emission maximum": 610
  },
  {
    "CPD SMILES": "CC1(C)CC(/C=C/c2ccc(-n3c4ccccc4c4ccccc43)cc2)=CC(=C(C#N)C#N)C1",
    "ENDPOINT UNIT": "nm",
    "emission maximum": 600
  },
  {
    "CPD SMILES": "CN(C)c1ccc2c(c1)C(=O)NC2=O",
    "ENDPOINT UNIT": "nm",
    "emission maximum": 490
  },
  {
    "CPD SMILES": "O=C1c2ccccc2-c2c(-c3ccccc3)c(-c3ccccc3)c(-c3ccccc3)c3cccc1c23",
    "ENDPOINT UNIT": "nm",
    "emission maximum": 498
  },
  {
    "CPD SMILES": "COC(=O)C[C@H](Cc1c[nH]c2ccccc12)NC(=O)[C@H](CC(=O)N[C@@H](CC1=CCc2ccccc21)C(=O)OC)NC(=O)[C@H](Cc1c[nH]c2ccccc12)NC(=O)OC(C)(C)C",
    "ENDPOINT UNIT": "nm",
    "emission maximum": 334
  },
  {
    "CPD SMILES": "N#CSC1=CC2=C(c3ccccc3)c3ccc(N4CCOCC4)n3[B-](F)(F)[N+]2=C1N1CCOCC1",
    "ENDPOINT UNIT": "nm",
    "emission maximum": 605
  },
  {
    "CPD SMILES": "CCNc1ccc2c(C(F)(F)F)cc(=O)oc2c1",
    "ENDPOINT UNIT": "nm",
    "emission maximum": 485
  },
  {
    "CPD SMILES": "Cc1cc2c(o1)c(Br)cc1c(C)cc(=O)oc12",
    "ENDPOINT UNIT": "nm",
    "emission maximum": 435
  },
  {
    "CPD SMILES": "Cn1cc(-c2nc3ccccc3nc2/C=C/N2CCCC2)c2ccccc21",
    "ENDPOINT UNIT": "nm",
    "emission maximum": 556.97
  }
]

* * *

- PROCEDURE SUMMARY: solvent given as SMILES
- CONDITION NOTES: in O

[
  {
    "CPD SMILES": "CC1(C)C(=O)C=Cc2ccc(N)cc21",
    "emission maximum": "526 nm"
  },
  {
    "CPD SMILES": "O=C([O-])c1cc2c(ccc3ccccc32)oc1=O",
    "emission maximum": "428 nm"
  },
  {
    "CPD SMILES": "COc1cc(N(CC(=O)[O-])CC(=O)[O-])c2nc(COc3cc(C)ccc3N(CC(=O)[O-])CC(=O)[O-])ccc2c1",
    "emission maximum": "500 nm"
  },
  {
    "CPD SMILES": "CCOC(=O)c1ccccc1-c1c2ccc(=[N+](CC)CC)cc-2oc2c1oc1cc(N)ccc12",
    "emission maximum": "645 nm"
  },
  {
    "CPD SMILES": "[NH3+]c1cc([NH3+])cc(-c2[nH+]c3ccccc3s2)c1",
    "emission maximum": "460 nm"
  },
  {
    "CPD SMILES": "CCn1c(-c2ccc(-c3ccc(-c4ccc(-c5n(CC)c6cc(C)ccc6[n+]5CC)cc4)cc3)cc2)[n+](CC)c2ccc(C)cc21",
    "emission maximum": "397 nm"
  },
  {
    "CPD SMILES": "O=c1[nH]c(=O)n([C@@H]2O[C@H](CO)[C@@H](O)[C@H]2O)cc1-c1cc2ccccc2s1",
    "emission maximum": "458 nm"
  },
  {
    "CPD SMILES": "CC(=O)Nc1ccc2c(c1)c(=O)c1cc(NC(C)=O)ccc1n2CCCCCC(=O)O",
    "emission maximum": "463 nm"
  },
  {
    "CPD SMILES": "CC1(C)C2=[N+](CCCCCC(=O)NCCNC(=O)CCCCCN3/C(=C/C=C/C=C/C=C/2)C(C)(C)c2cc(S(=O)(=O)[O-])ccc23)c2ccc(S(=O)(=O)[O-])cc21",
    "emission maximum": "770 nm"
  }
]

* * *

- PROCEDURE SUMMARY: solvent given as SMILES
- CONDITION NOTES: in C1CCCCC1

[
  {
    "CPD SMILES": "COc1c2ccccc2c(OC)c2c1c1cccc(OC)c1n2C",
    "emission maximum, nm": 418
  },
  {
    "CPD SMILES": "c1ccc(-c2nn(-c3ccccc3)c3nc4ccccc4cc23)cc1",
    "emission maximum, nm": 443.66
  },
  {
    "CPD SMILES": "CC1=[N+]2C(=C(c3ccc(N4CCOCC4)cc3)c3ccc(C)n3[B-]2(F)F)C=C1",
    "emission maximum, nm": 520
  },
  {
    "CPD SMILES": "CCC1=C(C)C2=C(C)c3cc(I)c(I)n3[B-](F)(F)[N+]2=C1C",
    "emission maximum, nm": 546
  },
  {
    "CPD SMILES": "COc1c2ccccc2c(OC)c2c1c1cc(C)ccc1n2C",
    "emission maximum, nm": 421
  },
  {
    "CPD SMILES": "CNc1cccc2c1-c1ccccc1C2=O",
    "emission maximum, nm": 536
  },
  {
    "CPD SMILES": "COc1ccc2c3c(c4ccc(OC)cc4c2c1)=[N+]1C(=C(c2c(C)cc(C)cc2C)c2cc4c5ccc(OC)cc5c5cc(OC)ccc5c4n2[B-]1(F)F)C=3",
    "emission maximum, nm": 700
  },
  {
    "CPD SMILES": "c1ccc2cc(-n3c4ccccc4c4ccccc43)ccc2c1",
    "emission maximum, nm": 362
  },
  {
    "CPD SMILES": "CCC(C)(C)c1ccc(-c2ccc3c(c2)C(CCOC)(CCOC)c2cc4c(cc2-3)C(CCOC)(CCOC)c2cc(-c3ccc(C(C)(C)CC)cc3)ccc2-4)cc1",
    "emission maximum, nm": 390
  },
  {
    "CPD SMILES": "CC(C)(C)c1ccc2c(c1)c1cc(C(C)(C)C)ccc1n2-c1ccc2oc3nc4oc5ccc(C(F)(F)F)cc5c4cc3c2c1",
    "emission maximum, nm": 396
  },
  {
    "CPD SMILES": "CB1C=Cc2ccc3ccccc3c2N1c1ccccc1",
    "emission maximum, nm": 387
  },
  {
    "CPD SMILES": "COc1ccc(-c2cc3c4c(c2)CCc2cc(-c5ccc(OC)cc5)cc(c2-4)CC3)cc1",
    "emission maximum, nm": 386.34
  },
  {
    "CPD SMILES": "C=Cc1ccc(OC)cc1",
    "emission maximum, nm": 322
  },
  {
    "CPD SMILES": "CCOC(=O)CCOc1ccc(C(c2c(C)[nH]c3ccccc23)c2c(C)[nH]c3ccccc23)cc1OC",
    "emission maximum, nm": 330
  },
  {
    "CPD SMILES": "C#CCNC1=C2C=C(c3cc4n(c3)[B-](F)(F)[N+]3=CC=CC3=C4c3c(C)cc(C)cc3C)C(C)=[N+]2[B-](F)(F)n2c(C)ccc21",
    "emission maximum, nm": 633
  },
  {
    "CPD SMILES": "COOCc1noc(-c2ccccc2)c1Cl",
    "emission maximum, nm": 345
  },
  {
    "CPD SMILES": "CC1=[N+]2C(=C(c3ccc4c(c3)Cc3ccccc3-4)c3ccc(C)n3[B-]2(F)F)C=C1c1cc2n(c1)[B-](F)(F)[N+]1=CC=CC1=C2c1c(C)cc(C)cc1C",
    "emission maximum, nm": 645
  },
  {
    "CPD SMILES": "Cc1cc2c(o1)c(C)cc1ccc(=O)oc12",
    "emission maximum, nm": 360
  },
  {
    "CPD SMILES": "CCCCC1(CCCC)c2cc(C#Cc3ccc4ccc5cccc6ccc3c4c56)ccc2-c2ccc(C#Cc3ccc4ccc5cccc6ccc3c4c56)cc21",
    "emission maximum, nm": 433
  }
]
